B1: NP_006221.1 (parent)
chain: CQPISFSGFGAEDDDLGGLGLGP

# Variants of: B1
# TEST NAME: protein stability index of a GFP-peptide fusion (GPS, HEK-293T) (PSI 1-6); higher = more stable;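 also: lentivirally expressed fusion library, cells FACS-sorted into six equal-sized GFP/DsRed ratio bins, PSI computed from sequencing read fractions per bin weighted by bin number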
# ASSAY CONDITIONS: c terminus: native

>  <VARIANT ID>
D15W

>  <protein stability index>
2.44

$$$$
>  <VARIANT ID>
G20W

>  <protein stability index>
3.19

$$$$
>  <VARIANT ID>
A11K

>  <protein stability index>
2.09

$$$$
>  <VARIANT ID>
S7Y

>  <protein stability index>
2.6

$$$$
>  <VARIANT ID>
I4N

>  <protein stability index>
2.45

$$$$
>  <VARIANT ID>
E12N

>  <protein stability index>
2.32

$$$$
>  <VARIANT ID>
L19F

>  <protein stability index>
2.51

$$$$
>  <VARIANT ID>
S5R

>  <protein stability index>
2.14

$$$$
>  <VARIANT ID>
A11W

>  <protein stability index>
2.06

$$$$
>  <VARIANT ID>
I4F

>  <protein stability index>
2.12

$$$$
>  <VARIANT ID>
G8Q

>  <protein stability index>
1.87

$$$$
>  <VARIANT ID>
G8E

>  <protein stability index>
2.03

$$$$
>  <VARIANT ID>
C1P

>  <protein stability index>
2.33

$$$$
>  <VARIANT ID>
F6K

>  <protein stability index>
4.18

$$$$
>  <VARIANT ID>
Q2D

>  <protein stability index>
2.51

$$$$
>  <VARIANT ID>
D13E

>  <protein stability index>
2.22

$$$$
>  <VARIANT ID>
G8H

>  <protein stability index>
1.98

$$$$
>  <VARIANT ID>
G18R

>  <protein stability index>
2.31

$$$$
>  <VARIANT ID>
Q2M

>  <protein stability index>
2.16

$$$$
>  <VARIANT ID>
G18L

>  <protein stability index>
2.24

$$$$
>  <VARIANT ID>
S7F

>  <protein stability index>
2.48

$$$$
>  <VARIANT ID>
G8M

>  <protein stability index>
2.23

$$$$
